test: Selectivity index, ratio of CC50 for MDCK cells to EC50 for Influenza B virus; format: toxicity, cell-based; settings: dog, read-out: Ratio CC50/EC50
experimental_endpoint: selectivity ratio

Qu. Could you tell me which selectivity ratio is on file for "Nc1ncc(Br)c2c1ncn2[C@@H]1C[C@H](CO)[C@@H](O)[C@H]1O" ?
Ans. > 340

Qu. Quick one: "Nc1ncc(Br)c2c1ncn2[C@@H]1C=C(CO)[C@@H](O)[C@H]1O"
Ans. < 7

###

experiment: Selectivity index, ratio of CC50 for african green monkey Vero cells to EC50 for Measles virus; assay type: toxicity, cell-based; settings: read-out: Ratio CC50/EC50
experimental_endpoint: selectivity ratio
Write the value as a bare number.

Qu. What value of selectivity ratio has been recorded for this entry: "Nc1ncc(Br)c2c1ncn2[C@@H]1C[C@H](CO)[C@@H](O)[C@H]1O"
Ans. 4.3

###

experiment: Selectivity index, ratio of CC50 for MDCK cells to EC50 for Influenza A virus H5N1; assay type: toxicity, cell-based; conditions: dog, read-out: Ratio CC50/EC50
experimental_endpoint: selectivity ratio

Qu. I'd like to know its selectivity ratio. The compound in question is "Nc1ncc(Br)c2c1ncn2[C@@H]1C=C(CO)[C@@H](O)[C@H]1O"
Ans. > 310

Qu. "Nc1ncc(Br)c2c1ncn2[C@@H]1C[C@H](CO)[C@@H](O)[C@H]1O" ?
Ans. > 260

###

test system: Punta Toro virus; experiment: Antiviral activity against Punta Toro virus infected in african green monkey Vero 76 cells assessed as reduction of viral replication; assay type: functional, organism-based
experimental_endpoint: EC50 (nM)
Give your result in nM as a bare value.

Qu. Can you share its EC50? I mean this compound: "Nc1ncc(Br)c2c1ncn2[C@@H]1C=C(CO)[C@@H](O)[C@H]1O"
Ans. 250

###

tested on: Influenza A virus; assay: Antiviral activity against Influenza A virus H3N2 infected in MDCK cells assessed as reduction of viral replication; assay type: functional, organism-based
For each of the compounds below, state its EC50.

Qu. For the compound "Nc1ncc(Br)c2c1ncn2[C@@H]1C=C(CO)[C@@H](O)[C@H]1O" , what EC50 is on record?
Ans. 1.55 µM

Qu. Next up: "Nc1ncc(Br)c2c1ncn2[C@@H]1C[C@H](CO)[C@@H](O)[C@H]1O"
Ans. > 290 µM

###

test: Selectivity index, ratio of CC50 for african green monkey Vero cells to EC50 for Junin virus; assay type: toxicity, cell-based; settings: read-out: Selectivity Index
experimental_endpoint: selectivity ratio
Response field accepts a number only; no unit should be typed.

Qu. Need selectivity ratio, item "Nc1ncc(Br)c2c1ncn2[C@@H]1C=C(CO)[C@@H](O)[C@H]1O"
Ans. 160

###

assay: Cytotoxicity against african green monkey Vero cells assessed as reduction of cell viability; type: cell-based; conditions: chlorocebus sabaeus
What CC50 was measured for each of the following?
Please give the number followed by its unit.

Qu. // lookup CC50 for "Nc1ncc(Br)c2c1ncn2[C@@H]1C=C(CO)[C@@H](O)[C@H]1O"
Ans. 15.2 µM

Qu. One more compound: "Nc1ncc(Br)c2c1ncn2[C@@H]1C[C@H](CO)[C@@H](O)[C@H]1O"
Ans. 70 µM

###

Would you mind telling me the reported CC50 of each entry?
assay: Cytotoxicity against african green monkey Vero 76 cells assessed as reduction of cell viability; type: cell-based; details: chlorocebus sabaeus

Qu. Report CC50 for "Nc1ncc(Br)c2c1ncn2[C@@H]1C=C(CO)[C@@H](O)[C@H]1O" please.
Ans. 23.2 µM

Qu. Now this one: "Nc1ncc(Br)c2c1ncn2[C@@H]1C[C@H](CO)[C@@H](O)[C@H]1O"
Ans. > 79 µM
